Recorded pIC50 values for a group of molecules are listed next.
# SYSTEM: HCV NS5B polymerase 1a-H77 (Hepatitis C virus genotype 1a, UniProt P27958)
# Construct: six-histidine tag; made in house; host or cells: E. coli
# Sequence (P27958 2421-2990): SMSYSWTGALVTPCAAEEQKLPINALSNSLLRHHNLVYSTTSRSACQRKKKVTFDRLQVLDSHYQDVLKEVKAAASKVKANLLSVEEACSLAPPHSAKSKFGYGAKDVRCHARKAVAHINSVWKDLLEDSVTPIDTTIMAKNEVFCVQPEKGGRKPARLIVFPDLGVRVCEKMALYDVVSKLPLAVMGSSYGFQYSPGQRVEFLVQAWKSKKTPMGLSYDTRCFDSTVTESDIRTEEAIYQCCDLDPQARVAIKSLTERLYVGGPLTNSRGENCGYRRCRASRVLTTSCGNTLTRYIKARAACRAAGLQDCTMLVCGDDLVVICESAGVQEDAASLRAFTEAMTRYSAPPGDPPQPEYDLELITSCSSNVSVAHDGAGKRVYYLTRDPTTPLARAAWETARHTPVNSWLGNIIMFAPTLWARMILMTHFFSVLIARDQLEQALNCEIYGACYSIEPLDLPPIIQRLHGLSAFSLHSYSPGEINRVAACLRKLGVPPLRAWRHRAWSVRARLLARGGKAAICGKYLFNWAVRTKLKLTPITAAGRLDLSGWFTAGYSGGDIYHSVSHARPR
# PROCEDURE DETAILS: biochemical
# Parameters: species or system HCV genotype 1a
# TEST CONTEXT: enzyme, strain 1a H77; read-out: HCV Polymerase Strain 1a H77 IC50
Worth noting: pIC50 values are minus log10 of concentrations stated in mol/L.

INSERT INTO assay_data (molecule, endpoint_value) VALUES
  ('CS(=O)(=O)N(CCC1CCS(=O)(=O)C1)c1cc2oc(-c3ccc(F)cc3)c(C3=NOCCN3)c2cc1C1CC1 (stereo not shown) [Example 123]', 8.02);

Consider the molecule CC1NC(c2c(-c3ccc(F)cc3)oc3cc(N(CCO)S(C)(=O)=O)c(C4CC4)cc23)=NO1 (stereo not shown) [Example 158] and give its measured pIC50.
8.08

Consider the molecule CN(C)CCCN(c1cc2oc(-c3ccc(F)cc3)c(-c3ncc[nH]3)c2cc1C1CC1)S(C)(=O)=O [Example 59] and give its measured pIC50.
7.87

Consider the molecule CS(=O)(=O)N(Cc1cnc(-c2ccc3[nH]ccc3c2)s1)c1ccc2c(-c3ncc[nH]3)c(-c3ccccc3)oc2c1 [Example 23] and give its measured pIC50.
8.41

Consider the molecule CS(=O)(=O)N(CCCF)c1cc2oc(-c3ccc(F)cc3)c(-c3ncc[nH]3)c2cc1C1CC1 [Example 85] and give its measured pIC50.
8.35

Consider the molecule C[S+]([O-])CCCN(c1cc2oc(-c3ccc(F)cc3)c(C3=NOCCN3)c2cc1C1CC1)S(C)(=O)=O (stereo not shown) [Example 139] and give its measured pIC50.
8.11

Consider the molecule CS(=O)(=O)N(CCC(F)(F)F)c1cc2oc(-c3ccc(F)cc3)c(C3=NOCCN3)c2cc1C1CC1 [Example 118] and give its measured pIC50.
8.23

###

# SYSTEM: HCV NS5B polymerase 1b BK strain (Hepatitis C virus genotype 1b)
# Construct: six-histidine tag; made in house; host or cells: E. coli
# Sequence (P26663 2420-2989): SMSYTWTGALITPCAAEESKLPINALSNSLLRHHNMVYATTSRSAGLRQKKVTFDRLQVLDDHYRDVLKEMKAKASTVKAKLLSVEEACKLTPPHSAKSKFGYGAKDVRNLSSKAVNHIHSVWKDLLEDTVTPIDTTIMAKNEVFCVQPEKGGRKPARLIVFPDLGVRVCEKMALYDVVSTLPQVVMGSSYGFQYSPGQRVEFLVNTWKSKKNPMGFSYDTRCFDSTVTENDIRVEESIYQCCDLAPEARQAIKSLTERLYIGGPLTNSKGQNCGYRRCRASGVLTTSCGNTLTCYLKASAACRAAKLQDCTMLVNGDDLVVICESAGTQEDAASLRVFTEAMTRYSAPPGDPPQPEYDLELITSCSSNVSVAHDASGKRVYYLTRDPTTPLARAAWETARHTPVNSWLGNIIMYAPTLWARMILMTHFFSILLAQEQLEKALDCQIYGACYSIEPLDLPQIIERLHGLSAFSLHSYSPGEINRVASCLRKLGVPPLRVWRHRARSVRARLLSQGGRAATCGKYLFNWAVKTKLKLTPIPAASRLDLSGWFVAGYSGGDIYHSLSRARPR
# PROCEDURE DETAILS: HCV NS5B polymerase enzymatic inhibition assay, strain 1b BK
# Type: biochemical
# TEST CONTEXT: enzyme, strain 1b BK; read-out: HCV Polymerase Strain 1b BK IC50
RESULT TYPE: pIC50
Worth noting: pIC50 values are minus log10 of concentrations stated in mol/L.

// worked examples, pIC50 included
INSERT INTO measurements (compound, endpoint_value) VALUES
  ('CC(C)(C)[Si](C)(C)OCCCCN(c1cc2oc(-c3ccc(F)cc3)c(-c3ncc[nH]3)c2cc1C1CC1)S(C)(=O)=O [Example 42]', 6.11),
  ('CS(=O)(=O)CCCN(c1cc2oc(-c3ccc(F)cc3)c(-c3ncc[nH]3)c2cc1C1CC1)S(C)(=O)=O [Example 101]', 7.96);

Consider the compound CN(C)C(=O)CCCN(c1cc2oc(-c3ccc(F)cc3)c(-c3ncc[nH]3)c2cc1C1CC1)S(C)(=O)=O [Example 102] and give its measured pIC50.
7.33

Consider the compound CC(=O)CCCCN(c1cc2oc(-c3ccc(F)cc3)c(-c3ncc[nH]3)c2cc1C1CC1)S(C)(=O)=O [Example 77] and give its measured pIC50.
8.00

###

# System: HCV NS5B polymerase 1a-H77-C316Y
# PROCEDURE DETAILS: biochemical
# Set-up: species or system HCV genotype 1a
# TEST CONTEXT: ratio of enzyme IC50s, 1a H77-C316Y / 1a H77
RESULT TYPE: C316Y/1a Fold Resistance (fold)
Answer in fold, number only, no unit symbol.

// worked examples, C316Y/1a Fold Resistance included
INSERT INTO results (compound, endpoint_value) VALUES
  ('CS(=O)(=O)N(CC1CC1)c1cc2oc(-c3ccc(F)cc3)c(-c3ncc[nH]3)c2cc1C1CC1 [Example 53]', 46),
  ('COc1ccc(CN(c2cc3oc(-c4ccc(F)cc4)c(-c4ncc(C)[nH]4)c3cc2C2CC2)S(C)(=O)=O)cc1 [Example 188]', 15),
  ('CS(=O)(=O)N(CCCS(N)(=O)=O)c1cc2oc(-c3ccc(F)cc3)c(C3=NOCCN3)c2cc1C1CC1 [Example 124]', 8),
  ('Cn1cc(-c2ncc(CN(c3ccc4c(-c5ncc[nH]5)c(-c5ccccc5)oc4c3)S(C)(=O)=O)s2)cn1 [Example 26]', 3),
  ('CS(=O)(=O)N(CCC(F)(F)F)c1cc2oc(-c3ccc(F)cc3)c(C3=NOCCN3)c2cc1C1CC1 [Example 118]', 19),
  ('CS(=O)(=O)N(Cc1cnc(-c2ccc3[nH]ccc3c2)s1)c1ccc2c(-c3ncc[nH]3)c(-c3ccccc3)oc2c1 [Example 23]', 7);

In the following, a different compound is considered.
Consider the compound CS(=O)(=O)N(CCC1CCS(=O)(=O)C1)c1cc2oc(-c3ccc(F)cc3)c(-c3ncc[nH]3)c2cc1C1CC1 (stereo not shown) [Example 61] and give its measured C316Y/1a Fold Resistance.
9

###

Recorded pEC50 values for a group of molecules are listed next.
# Tested on: HCV 1b-Con1 subgenomic replicon
# PROCEDURE DETAILS: Stable replicon cell culture assay (luciferase), 1b-Con1; 5% FBS, optionally 40% human plasma
# Assay type: cell-based, HCV genotype 1b
# TEST CONTEXT: Hepatitis C virus, strain 1b Con1, 5% FBS, no human plasma, read-out: 1b Con1 5% FBS EC50
Worth noting: pEC50 values are minus log10 of concentrations stated in mol/L.

// worked examples, pEC50 included
INSERT INTO results (molecule, system, endpoint_value) VALUES
  ('CCCC/C=C/c1ccc(-c2oc3cc(N(CCCCS(C)(=O)=O)S(C)(=O)=O)c(C4CC4)cc3c2-c2ncc[nH]2)cc1 [Example 168]', 'HCV 1b-Con1 subgenomic replicon', 8.47),
  ('COc1ccc(-c2nn3ccc(-c4cc(C(=O)NC5(c6ccccc6)CC5)ccc4C)cc3c2C2=NOCCN2)cc1 [Example 19]', 'HCV 1b-Con1 subgenomic replicon', 8.17),
  ('CC(C)CCN(c1cc2oc(-c3ccc(Nc4ccccc4)cc3)c(-c3ncc[nH]3)c2cc1C1CC1)S(C)(=O)=O [Example 18]', 'HCV 1b-Con1 subgenomic replicon', 8.02);

In the following, a different molecule is considered.
Consider the molecule CS(=O)(=O)CCCCN(c1cc2oc(-c3ccc(Nc4ccccc4)cc3)c(-c3ncc[nH]3)c2cc1C1CC1)S(C)(=O)=O [Example 169] and give its measured pEC50.
8.30

###

# SYSTEM: HCV NS5B polymerase 1a-H77-C316Y (Hepatitis C virus genotype 1a, UniProt P27958, C2736Y)
# Construct: six-histidine tag
# Sequence (P27958 2421-2990 C2736Y): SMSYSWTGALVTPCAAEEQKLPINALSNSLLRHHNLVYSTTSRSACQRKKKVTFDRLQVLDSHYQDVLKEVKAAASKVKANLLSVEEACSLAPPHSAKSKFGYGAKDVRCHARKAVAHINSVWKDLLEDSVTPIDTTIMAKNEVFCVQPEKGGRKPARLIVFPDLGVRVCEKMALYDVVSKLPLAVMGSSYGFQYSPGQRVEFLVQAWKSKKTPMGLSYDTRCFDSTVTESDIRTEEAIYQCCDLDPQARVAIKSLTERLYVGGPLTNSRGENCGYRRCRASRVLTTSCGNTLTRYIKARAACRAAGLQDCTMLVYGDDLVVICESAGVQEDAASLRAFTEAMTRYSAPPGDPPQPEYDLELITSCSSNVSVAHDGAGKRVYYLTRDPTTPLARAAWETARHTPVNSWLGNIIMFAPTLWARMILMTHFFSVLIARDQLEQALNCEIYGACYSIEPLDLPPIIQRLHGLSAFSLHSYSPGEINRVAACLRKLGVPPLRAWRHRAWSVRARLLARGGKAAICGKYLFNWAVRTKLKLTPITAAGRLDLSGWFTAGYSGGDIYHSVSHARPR
# PROCEDURE DETAILS: biochemical
pIC50: −log10 of the molar value.
Mark criterion not met for pIC50 values under 7, and criterion met for everything at or above.

Example cases with answers are listed next.
INSERT INTO measurements (compound, system, classification) VALUES
  ('CC1NC(c2c(-c3ccc(F)cc3)oc3cc(N(CCCCO)S(C)(=O)=O)c(C4CC4)cc23)=NO1 (centres unmarked)', 'HCV NS5B polymerase 1a-H77-C316Y (Hepatitis C virus genotype 1a, UniProt P27958, C2736Y)', 'criterion met'),
  ('CS(=O)(=O)N(CCCN1CCCCC1)c1cc2oc(-c3ccc(F)cc3)c(C3=NOCCN3)c2cc1C1CC1', 'HCV NS5B polymerase 1a-H77-C316Y (Hepatitis C virus genotype 1a, UniProt P27958, C2736Y)', 'criterion not met'),
  ('CS(=O)(=O)N(CCCc1noc(=S)[nH]1)c1cc2oc(-c3ccc(F)cc3)c(-c3ncc[nH]3)c2cc1C1CC1', 'HCV NS5B polymerase 1a-H77-C316Y (Hepatitis C virus genotype 1a, UniProt P27958, C2736Y)', 'criterion met');

Is reported pIC50 greater than or equal to 7 here: CS(=O)(=O)N(CC(O)CO)c1cc2oc(-c3ccc(F)cc3)c(-c3ncc[nH]3)c2cc1C1CC1 (centres unmarked)
criterion not met

Is reported pIC50 greater than or equal to 7 here: `CS(=O)(=O)Nc1cc2oc(-c3ccc(F)cc3)c(C3=NOCN3)c2cc1C1CC1`
criterion not met

Is reported pIC50 greater than or equal to 7 here: `CS(=O)(=O)N(CCc1csc(N)n1)c1cc2oc(-c3ccc(F)cc3)c(-c3ncc[nH]3)c2cc1C1CC1`
criterion not met

Is reported pIC50 greater than or equal to 7 here: `CS(=O)(=O)N(CC(N)=O)c1cc2oc(-c3ccc(F)cc3)c(-c3ncc[nH]3)c2cc1C1CC1`
criterion not met

Is reported pIC50 greater than or equal to 7 here: `CC(C)(O)CCCN(c1cc2oc(-c3ccc(F)cc3)c(-c3ncc[nH]3)c2cc1C1CC1)S(C)(=O)=O`
criterion met

Is reported pIC50 greater than or equal to 7 here: `CNS(=O)(=O)CCCN(c1cc2oc(-c3ccc(F)cc3)c(-c3ncc[nH]3)c2cc1C1CC1)S(C)(=O)=O`
criterion met

Is reported pIC50 greater than or equal to 7 here: `COc1ccc(CN(c2cc3oc(-c4ccc(F)cc4)c(-c4nc(Cl)c[nH]4)c3cc2C2CC2)S(C)(=O)=O)cc1`
criterion not met

Is reported pIC50 greater than or equal to 7 here: `COc1ccc(CN(c2cc3oc(-c4ccc(F)cc4)c(C4=NOCN4)c3cc2C2CC2)S(C)(=O)=O)cc1`
criterion not met
